- TGT: PFKL 6-phosphofructokinase, liver type (Homo sapiens)
- Construct: isoTOP-ABPP experiments performed in cell lysates (in vitro); endogenous in cells; host or cells: soluble proteome of human cancer cell lines (MDA-MB-231; Ramos and Jurkat also prepared)
- Sequence (P17858 whole entry): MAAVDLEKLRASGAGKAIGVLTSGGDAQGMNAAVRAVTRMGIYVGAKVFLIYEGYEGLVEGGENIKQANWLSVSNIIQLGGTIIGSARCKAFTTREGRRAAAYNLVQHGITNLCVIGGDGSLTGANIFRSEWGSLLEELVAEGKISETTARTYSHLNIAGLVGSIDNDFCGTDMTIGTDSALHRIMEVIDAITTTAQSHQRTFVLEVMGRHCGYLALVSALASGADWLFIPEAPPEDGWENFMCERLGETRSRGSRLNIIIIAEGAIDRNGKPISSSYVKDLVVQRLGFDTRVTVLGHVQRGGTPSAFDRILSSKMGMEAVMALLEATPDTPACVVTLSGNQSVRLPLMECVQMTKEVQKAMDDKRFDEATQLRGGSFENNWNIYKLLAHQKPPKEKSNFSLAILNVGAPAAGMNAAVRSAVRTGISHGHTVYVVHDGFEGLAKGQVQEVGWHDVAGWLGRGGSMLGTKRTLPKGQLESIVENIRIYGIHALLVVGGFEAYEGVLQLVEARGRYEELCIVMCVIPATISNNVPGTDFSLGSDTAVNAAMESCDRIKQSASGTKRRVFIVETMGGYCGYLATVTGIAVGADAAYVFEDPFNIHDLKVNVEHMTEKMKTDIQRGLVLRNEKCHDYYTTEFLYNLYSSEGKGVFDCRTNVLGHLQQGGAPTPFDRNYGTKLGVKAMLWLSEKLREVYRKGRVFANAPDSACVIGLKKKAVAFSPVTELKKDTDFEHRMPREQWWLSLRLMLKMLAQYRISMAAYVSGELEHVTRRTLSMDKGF
- PROTOCOL: competitive isoTOP-ABPP
- Format: binding
- CONDITIONS: 50 uM, 231 sol, in vitro
// reported isoTOP-ABPP reactivity ratio at lysine P17858_K677 per item
MEASUREMENT TYPE: isoTOP-ABPP reactivity ratio at lysine P17858_K677

{"MOLECULE": "O=C(CCc1cn(-c2ccccc2)nc1-c1ccccc1)Oc1ccc([N+](=O)[O-])cc1[N+](=O)[O-]", "REPORTED RESULT": 2.0}
{"MOLECULE": "O=C(CCc1coc2cc(F)ccc2c1=O)Oc1c(F)c(F)c(F)c(F)c1F", "REPORTED RESULT": 20.0}
{"MOLECULE": "O=C(CN1C(=O)c2ccccc2C1=O)Oc1c(F)c(F)c(F)c(F)c1F", "REPORTED RESULT": 18.1}
{"MOLECULE": "O=C(Oc1c(F)c(F)c(F)c(F)c1F)C1CCN(C(=O)OCc2ccccc2)CC1", "REPORTED RESULT": 3.3}
{"MOLECULE": "CCn1cc(C(=O)Oc2c(F)c(F)c(F)c(F)c2F)c(=O)c2ccc(C)nc21", "REPORTED RESULT": 1.1}
{"MOLECULE": "O=C(Oc1ccc([N+](=O)[O-])cc1[N+](=O)[O-])C(c1ccccc1)c1ccccc1 [fragment 30, 2,4-Dinitrophenyl 2,2-diphenylacetate]", "REPORTED RESULT": 20.0}
{"MOLECULE": "O=C(Oc1ccc([N+](=O)[O-])cc1[N+](=O)[O-])c1cc(C(F)(F)F)cc(C(F)(F)F)c1", "REPORTED RESULT": 2.5}
{"MOLECULE": "COc1cc(CCC(=O)Oc2ccc([N+](=O)[O-])cc2[N+](=O)[O-])cc(OC)c1OC", "REPORTED RESULT": 2.0}
{"MOLECULE": "O=C(Oc1c(F)c(F)c(F)c(F)c1F)c1ccc2ccccc2n1", "REPORTED RESULT": 1.6}
{"MOLECULE": "Cn1cc(CC(=O)Oc2ccc([N+](=O)[O-])cc2[N+](=O)[O-])c2ccccc21", "REPORTED RESULT": 11.9}
